Origin of the recorded values: patent US9718790B2

- targetOfAssay: UniProt P56373
- assayOverview: Evaluation of human P2X3 receptor inhibitory activity (Fluo-3 calcium fluorescence, FDSS 3000, ATP stimulation)
- Format: cell-based
- experimentalConditions: C6BU-1 cells stably expressing human P2X3 receptor, Fluo-3 fluorescence, FDSS 3000
testReadout: IC50

INSERT INTO results (chemicalstructure, resultvalue) VALUES
  ('COC(=O)CC1(Cn2c(=O)[nH]/c(=N\c3ccc(OC(C)C)c(Cl)c3)n(Cc3ccc(Cl)cc3)c2=O)CC1', '15 nM'),
  ('C[C@@H](C(=O)O)[C@H](C)n1c(=O)[nH]/c(=N\c2ccc3sccc3c2)n(Cc2ccc(Cl)cc2)c1=O', '998 nM'),
  ('CCCOc1ccc(/N=c2\[nH]c(=O)n(C[C@@H](C)C(=O)O)c(=O)n2Cc2ccc(Cl)cc2)cc1', '65 nM'),
  ('Cc1cc2cc(/N=c3\[nH]c(=O)n([C@@H](C)[C@@H](C)C(=O)O)c(=O)n3Cc3ccc(Cl)cc3)cc(Cl)c2o1', '67 nM'),
  ('CCc1nc2ccc(/N=c3\[nH]c(=O)n(CCC(=O)NS(C)(=O)=O)c(=O)n3Cc3ccc(Cl)cc3)cc2s1', '13 nM'),
  ('Cc1ccc(Cn2c(=O)n(C[C@H](C)C(=O)O)c(=O)[nH]/c2=N\c2ccc(OCC3CC3)c(Cl)c2)cc1', '30 nM'),
  ('CCOc1ccc(/N=c2\[nH]c(=O)n(CC(CO)CO)c(=O)n2Cc2ccc(Cl)cc2)cc1Cl', '6 nM'),
  ('Cc1ccc(Cn2c(=O)n(CCCCC(=O)O)c(=O)[nH]/c2=N\c2ccc(OC(C)C)c(Cl)c2)cc1', '10 nM'),
  ('O=C(Cn1c(=O)[nH]/c(=N\c2ccc(Oc3ccc(O)nc3)cc2)n(Cc2ccc(Cl)cc2)c1=O)NCCO', '8 nM'),
  ('CCc1oc2ccc(/N=c3\[nH]c(=O)n(CC(=O)OC)c(=O)n3Cc3ccc(Cl)cc3)cc2c1C', '13 nM'),
  ('COC(=O)[C@@H](C)Cn1c(=O)[nH]/c(=N\c2cccc(C3CCCCC3)c2)n(Cc2ccc(C)cc2)c1=O', '548 nM'),
  ('C[C@@H](Oc1ccc(/N=c2\[nH]c(=O)n(CC(CO)CO)c(=O)n2Cc2ccc(Cl)cc2)cc1)C(F)(F)F', '16 nM'),
  ('Cc1ccc(Cn2c(=O)n(C[C@H](C)CO)c(=O)[nH]/c2=N\c2ccc(CC(C)C)c(Cl)c2)cc1', '7 nM'),
  ('CCN(c1ccc(/N=c2\[nH]c(=O)n(C[C@H](C)C(=O)O)c(=O)n2Cc2ccc(Cl)cc2)cc1)C(C)C', '662 nM');

====

Each item that follows carries a reported IC50.
- targetOfAssay: human P2X3 receptor (Homo sapiens (Human), UniProt P56373)
- Sequence (P56373 whole entry): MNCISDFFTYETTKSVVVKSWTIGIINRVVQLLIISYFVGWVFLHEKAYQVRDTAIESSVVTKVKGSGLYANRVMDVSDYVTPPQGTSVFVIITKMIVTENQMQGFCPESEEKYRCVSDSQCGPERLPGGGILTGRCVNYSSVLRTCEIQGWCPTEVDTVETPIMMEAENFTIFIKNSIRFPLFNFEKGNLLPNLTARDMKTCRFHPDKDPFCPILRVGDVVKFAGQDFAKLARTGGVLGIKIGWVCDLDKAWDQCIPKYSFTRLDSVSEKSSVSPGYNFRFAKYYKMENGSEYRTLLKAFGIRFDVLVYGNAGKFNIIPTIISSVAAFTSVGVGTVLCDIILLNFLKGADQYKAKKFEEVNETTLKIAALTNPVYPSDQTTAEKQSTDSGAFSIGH
- assayOverview: Evaluation of human P2X3 receptor inhibitory activity (Fluo-3 calcium fluorescence, FDSS 3000, ATP stimulation);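 further: stimulus was 50 nM ATP with fluorescence followed for 3 min, and the response per well was peak post-ATP fluorescence divided by the reading at measurement start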
- Type: cell-based
- experimentalConditions: C6BU-1 cells stably expressing human P2X3 receptor
testReadout: IC50

INSERT INTO measurements (compound, testreadout, resultvalue) VALUES
  ('CC(C)Oc1ccc(/N=c2\[nH]c(=O)n(CC(=O)OC3CCOCC3)c(=O)n2Cc2ccc(Cl)cc2)cc1Cl [Compound I-0673]', 'IC50', '0.008 µM'),
  ('CCn1c(=O)[nH]/c(=N\c2ccc(Oc3ccnc(NC(=O)NC4CC4)c3)cc2)n(Cc2ccc(Cl)cc2)c1=O [Compound I-2213]', 'IC50', '0.002 µM'),
  ('CCOC(=O)OC(=O)c1ccc(Oc2ccc(/N=c3\[nH]c(=O)n(CC)c(=O)n3Cc3ccc(C)cc3)cc2)cc1 [Compound I-2068]', 'IC50', '0.016 µM'),
  ('Cc1ccc(Cn2c(=O)n(CCCC(=O)O)c(=O)[nH]/c2=N\c2ccc(Oc3ccc(C)nc3)cc2)cc1 [Compound I-1395]', 'IC50', '0.023 µM'),
  ('COC(=O)c1cccc(Oc2ccc(/N=c3\[nH]c(=O)n(C)c(=O)n3Cc3ccc(Cl)cc3)cc2)c1 [Compound I-2059]', 'IC50', '0.056 µM'),
  ('CC(C)Oc1ccc(/N=c2\[nH]c(=O)n(CCS(N)(=O)=O)c(=O)n2Cc2ccc(Cl)cc2)cc1F [Compound I-0693]', 'IC50', '0.013 µM'),
  ('O=C(O)c1cc(Oc2ccc(/N=c3\[nH]c(=O)n(CCO)c(=O)n3Cc3ccc(Cl)cc3)cc2)no1 [Compound I-2117]', 'IC50', '0.023 µM');
